Collected pIC50 for UniProt:P12931 across several studies; compounds listed below.
pIC50: −log10 of the molar value.

Field: example entries. Status: answers known.
- chemical.string: "COc1ncc(-c2cnc3[nH]cc(C(=O)c4c(F)ccc(NS(=O)(=O)CC(C)C)c4F)c3c2)cn1"
  test.target: "UniProt:P12931"
  assay.readout: "pIC50"
  reported.value: "≥ 5.00"
- chemical.string: "CN(C)C/C=C/C(=O)N1CC(C#Cc2c(-c3ccc(Oc4ccccc4)cc3)c3c(N)ncnc3n2CCO)C1"
  test.target: "UniProt:P12931"
  assay.readout: "pIC50"
  reported.value: "6.00 to 8.00"
- chemical.string: "CCCS(=O)(=O)Nc1ccc(F)c(C(=O)c2c[nH]c3ncccc23)c1F"
  test.target: "UniProt:P12931"
  assay.readout: "pIC50"
  reported.value: "≥ 5.00"

Below: the item to evaluate.
## Task Look at this compound and give its reported pIC50. C=CC(=O)N1CCC(N2CC(C#Cc3c(-c4ccc(Cl)c(F)c4)c4c(N)ncnc4n3C)C2)CC1
## Result 6.00 to 8.00
